What follows is literature data on IC50 for Microtubule-associated protein tau (Homo sapiens, UniProt P10636).

Cc1ccc(C(C)(O)CCc2oc3ccc(Br)cc3c2-c2ccc(C)o2)cc1 (centres undefined)
1930 nM
Fc1cc(-c2ccc3c(n2)[nH]c2cccnc23)ccn1
260 nM
Fc1cc(-c2ccc3c(n2)[nH]c2ccncc23)ccn1
4.9 nM
COc1cc(-c2ccc3oc(CCC(C)=O)c(-c4ccc(C)o4)c3c2)ccn1
100 nM
COc1ccc(-c2ccc3oc(CCC(C)=O)c(-c4ccc(C)o4)c3c2)cn1
1270 nM
Fc1cc(-c2cnc3c(c2)[nH]c2ccncc23)ccn1
116 nM
COc1cc(-c2ccc3c(-c4ccc(C)o4)c(CCC(C)=O)oc3c2)ccn1
1570 nM
Fc1ncccc1-c1ccc2c(n1)[nH]c1cnccc12
70 nM
Fc1ncccc1-c1cnc2c(c1)[nH]c1ccncc12
344 nM
Fc1ncccc1-c1ccc2c(n1)[nH]c1ncccc12
> 1000 nM

Q. Report measured IC50; entry is CC(=O)CCc1oc2ccc(-c3cccnc3)cc2c1-c1ccc(C)o1
A. 7550 nM

Q. Respond only with IC50 recorded for COc1ccc2[nH]c3c(c2c1)N=CN(CCCN(C)C1CCCCC1)C3
A. 2100 nM

Q. Retrieve IC50 measured for Fc1cc(-c2ccc3c(n2)[nH]c2ncccc23)ccn1 and print it.
A. 310 nM

Q. Name the recorded IC50 of the item Cc1ccc(-c2c(CCC(C)(C)O)oc3ccc(Br)cc23)o1 in your answer.
A. 100 nM
